Tested on: P12-Ichikawa
Assay: cell viability relative to DMSO control; higher = less cytotoxic
Conditions: RPMI 5 mM glucose + 10% dialyzed FBS; 48 h; 0.0632 µM
Listed here are compounds together with their documented cell viability.
Parameter: cell viability (%)

- CC(=O)OCC(CCn1cnc2cnc(N)nc21)COC(C)=O: 105
- COC(=O)[C@@H]1CC2=CC(=O)CC[C@]2(C)[C@@]23O[C@@H]2C[C@@]2(C)[C@@H](CC[C@@]24CCC(=O)O4)[C@H]13: 112
- Cc1ccc(Nc2nccc(N(C)c3ccc4c(C)n(C)nc4c3)n2)cc1[S+](N)(=O)[O-]: 102
- O=C(N[C@H]1CN2CCC1CC2)c1ccc(Cl)cc1: 118
- NC(=O)c1c(OCc2c(F)cc(Br)cc2F)nsc1NC(=O)NCCCCN1CCCC1: 108
- Cc1ccnc(N[S+](=O)([O-])c2ccc(NC(=O)Nc3ccc([S+](=O)([O-])Nc4nccc(C)n4)cc3)cc2)n1: 102
